Target: Pro-neuregulin-1, membrane-bound isoform (Homo sapiens)
Assay: NRG1 binders on small-molecule microarrays, primary screen, psychiatric disease protein project, biochemical, small-molecule microarray, fluorescence 635/667 (AID 1075);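 further: score combines 667 nm spot fluorescence with signal to noise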
Settings: NRG1 binding, 635 nm fluorescence, higher = more signal
composite z-score vs 0.9: at or above is Y, below is N.

CCN(CC)c1ccc(N2CC=CC34O[C@@H]5/C=C\CCC(C)OC(=O)C5[C@H]3C(=O)N(C(C)CO)[C@@H]4C2=O)cc1 (some centres undefined)	N
COCCOC(=O)N1C(=O)[C@@]2(c3cc(C#CCC(C(=O)OC)C(=O)OC)ccc31)[C@H](C(=O)NC[C@H](O)c1ccccc1)[C@H]1C(=O)O[C@H](c3ccccc3)[C@H](c3ccccc3)N1[C@@H]2c1ccc(OCCO)cc1	N
COc1ccc(C#Cc2ccc3c(c2)[C@]2(C(=O)N3)[C@H](c3ccc(OCCO)cc3)N3[C@H](c4ccccc4)[C@H](c4ccccc4)OC(=O)[C@H]3[C@@H]2C(=O)N2CCc3cc(OC)c(OC)cc3C2)cc1	Y

Is the recorded value of composite z-score equal to or greater than 0.9 for this molecule? `CCOC(=O)C[C@H]1[C@H](OC(=O)c2ccc(-c3ccccc3)cc2)[C@@H](NC(=O)CC(C)C)c2cc(OCCCO)ccc2N1C(=O)c1ccccc1`
N

For this molecule, is measured composite z-score 0.9 or higher? `COc1ccc(CCNC(=O)[C@@]2(Cc3ccccc3I)c3ccccc3C(=O)N(Cc3ccccc3Cl)[C@H]2c2ccc(CO)cc2)cc1`
Y

Determine whether measured composite z-score meets or exceeds 0.9 for `[N-]=[N+]=NCc1ccccc1[C@H]1OC(c2ccc(OCCCO)cc2)=N[C@@]1(CCS(=O)(=O)c1ccccc1)C(=O)NCc1ccccc1`
Y
